# System: CDK2/cyclin A (Homo sapiens)
# Construct: made in house; host or cells: CDK2: insect cells (baculovirus); cyclin A: E. coli
# Method notes: Inhibition of CDK2/cyclin A retinoblastoma kinase activity (Ki; % inhibition)
# Type: biochemical
# Details: 0.03 μM compound
Can you tell me CDK2 % Inhibition at 0.03 μM for the items I'm about to list?
Dear colleague, please return just the value in %, with no unit written.

Dear colleague, I am looking for the recorded CDK2 % Inhibition at 0.03 μM of the following compound: COc1cc(NC(=O)c2ccc(Nc3nc(N)c(C(=O)c4c(F)cccc4F)s3)cc2)cc(OC)c1OC
8

Dear colleague, I am looking for the recorded CDK2 % Inhibition at 0.03 μM of the following compound: Cc1cccc(CNC(=O)c2ccc(Nc3nc(N)c(C(=O)c4c(F)cccc4F)s3)cc2)c1
31

Dear colleague, I am looking for the recorded CDK2 % Inhibition at 0.03 μM of the following compound: Nc1nc(Nc2ccc(C(=O)NCCCCc3ccccc3)cc2)sc1C(=O)c1c(F)cccc1F
6

Dear colleague, I am looking for the recorded CDK2 % Inhibition at 0.03 μM of the following compound: Nc1nc(Nc2ccc(C(=O)N[C@H](CO)Cc3ccccc3)cc2)sc1C(=O)c1c(F)cccc1F
−14

Dear colleague, I am looking for the recorded CDK2 % Inhibition at 0.03 μM of the following compound: Nc1nc(Nc2ccc(C(=O)NCCc3cccc(C(F)(F)F)c3)cc2)sc1C(=O)c1c(F)cccc1F
2

Dear colleague, I am looking for the recorded CDK2 % Inhibition at 0.03 μM of the following compound: Nc1nc(Nc2ccc(C(=O)NCc3ccc(OC(F)(F)F)cc3)cc2)sc1C(=O)c1c(F)cccc1F
36

Dear colleague, I am looking for the recorded CDK2 % Inhibition at 0.03 μM of the following compound: Nc1nc(Nc2ccc(C(=O)NCCCN(CCO)CCO)cc2)sc1C(=O)c1c(F)cccc1F
6

###

# System: CDK2/cyclin A (Homo sapiens, UniProt P24941)
# Construct: made in house; host or cells: CDK2: insect cells (baculovirus); cyclin A: E. coli
# Method notes: Inhibition of CDK2/cyclin A retinoblastoma kinase activity (Ki; % inhibition)
# Type: biochemical
# Details: at 0.03 μM
Property name: CDK2 % Inhibition at 0.03 μM (%)
Dear colleague, please return just the value in %, with no unit written.

Dear colleague, I am looking for the recorded CDK2 % Inhibition at 0.03 μM of the following compound: Nc1nc(Nc2ccc(C(=O)NCc3ccc4c(c3)OCO4)cc2)sc1C(=O)c1c(F)cccc1F [Example G172]
36

Dear colleague, I am looking for the recorded CDK2 % Inhibition at 0.03 μM of the following compound: Nc1nc(Nc2ccc(C(=O)NCCCN3CCCC3=O)cc2)sc1C(=O)c1c(F)cccc1F [Example G88]
−23

Dear colleague, I am looking for the recorded CDK2 % Inhibition at 0.03 μM of the following compound: Nc1nc(Nc2ccc(C(=O)Nc3ccc(O)cc3)cc2)sc1C(=O)c1c(F)cccc1F [Example G74]
23

Dear colleague, I am looking for the recorded CDK2 % Inhibition at 0.03 μM of the following compound: COc1ccc(NC(=O)c2ccc(Nc3nc(N)c(C(=O)c4c(F)cccc4F)s3)cc2)cc1O [Example G14]
9

Dear colleague, I am looking for the recorded CDK2 % Inhibition at 0.03 μM of the following compound: Nc1nc(Nc2ccc(C(=O)N3CCC(O)CC3)cc2)sc1C(=O)c1c(F)cccc1F [Example G56]
24

Dear colleague, I am looking for the recorded CDK2 % Inhibition at 0.03 μM of the following compound: CN(CC(O)CO)C(=O)c1ccc(Nc2nc(N)c(C(=O)c3c(F)cccc3F)s2)cc1 (centres unmarked) [Example G174]
0

Dear colleague, I am looking for the recorded CDK2 % Inhibition at 0.03 μM of the following compound: CCOC(=O)c1ccccc1NC(=O)c1ccc(Nc2nc(N)c(C(=O)c3c(F)cccc3F)s2)cc1 [Example G46]
4

Dear colleague, I am looking for the recorded CDK2 % Inhibition at 0.03 μM of the following compound: Nc1nc(Nc2ccc(C(=O)N3CCCC(CO)C3)cc2)sc1C(=O)c1c(F)cccc1F (centres unmarked) [Example G48]
1

The measured values listed here are drawn from patent US6720346B2.
